- ASSAYED_SYSTEM: human SUMO1 (Homo sapiens, UniProt P63165)
- Construct: encoding amino acids 1–97 of mature human SUMO1; host or cells: E. coli BL21 Rosetta (DE3)
- Sequence (P63165 1-97): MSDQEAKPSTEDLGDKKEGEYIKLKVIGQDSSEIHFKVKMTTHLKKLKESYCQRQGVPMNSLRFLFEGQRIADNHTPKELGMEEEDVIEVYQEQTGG
- PROTOCOL: SPR secondary screen / dose-dependent binding
- Parameters: key: ✓: dose-dependent saturation kinetics; ×: no indication of saturation kinetics
- CONDITION_LABEL: five concentrations 31.25-500 μM
PROPERTY: SPR Screens 2°

Sample answers from the record:
O=C(/C=C/c1ccc(O)c(O)c1)c1ccc(O)cc1O [Butein] : ×
O=c1c(-c2ccc(O)c(O)c2)coc2cc(O)ccc12 [3’,4’,7-Trihydroxy-isoflavone, 3’,4’,7-Trihydroxyisoflavone] : ×
O=C1C[C@@H](c2ccc(O)cc2)Oc2cc(O)cc(O)c21 [Naringenin] : ×
O=c1c(O)c(-c2ccc(O)c(O)c2)oc2cc(O)ccc12 [Fisetin, 3,3',4',7-tetrahydroxyflavone] : ✓

# evaluate next
Query block: Look at this compound and give its reported SPR Screens 2°. O=C(/C=C/c1ccc(O)cc1)c1ccc(O)cc1O [Isoliquiritigenin]
Result block: ✓

----------
- ASSAYED_SYSTEM: human SUMO1 (Homo sapiens, UniProt P63165)
- Construct: encoding amino acids 1–97 of mature human SUMO1; host or cells: E. coli BL21 Rosetta (DE3)
- PROTOCOL: SPR secondary screen / dose-dependent binding
- CONDITION_LABEL: range over the two experiments, Fig 2A and 2I; read-out: estimated Kd ranging (SPR)
PROPERTY: Kd

Query block: Look at this molecule and give its reported Kd. O=c1c(O)c(-c2ccc(O)c(O)c2)oc2cc(O)ccc12 [Fisetin, 3,3',4',7-tetrahydroxyflavone]
Result block: 124 to 228 µM

----------
- ASSAYED_SYSTEM: human SUMO1 (Homo sapiens, UniProt P63165)
- Construct: encoding amino acids 1–97 of mature human SUMO1; host or cells: E. coli BL21 Rosetta (DE3)
- PROTOCOL: Surface plasmon resonance (SPR) primary screen
- Assay type: binding
- CONDITION_LABEL: SPR primary screen, 500 μM flavonoid in DMSO; (Mean RU/RUmax)*100
PROPERTY: %RUmax (%)

O=C1C[C@@H](c2ccc(O)cc2)Oc2cc(O)cc(O)c21 : 27.5

[P] O=C(/C=C/c1ccc(O)c(O)c1)c1ccc(O)cc1O
[Q] O=c1c(O)c(-c2ccc(O)c(O)c2)oc2cc(O)ccc12 [Fisetin, 3,3',4',7-tetrahydroxyflavone]
[R] O=c1c(O)c(-c2ccc(O)cc2)oc2cc(O)cc(O)c12 [Kaempferol, 3,4′,5,7-tetrahydroxyflavone]
[S] O=c1c(-c2ccc(O)c(O)c2)coc2cc(O)ccc12 [3’,4’,7-Trihydroxy-isoflavone, 3’,4’,7-Trihydroxyisoflavone]
[T] O=c1cc(-c2ccc(O)c(O)c2)oc2cc(O)cc(O)c12
Query block: Sort ascending by %RUmax. Present the labels in the sequence the task asks for.
Result block: T, R, Q, S, P

[A] O=c1c(O[C@@H]2O[C@H](CO)[C@@H](O)[C@H](O)[C@H]2O)c(-c2ccc(O)c(O)c2)oc2cc(O)cc(O)c12 [Quercetin 3-β-D-glucoside]
[B] Cc1c(O)cc2oc(-c3ccc(O)c(O)c3)c(O)c(=O)c2c1O
Query block: Which has the higher %RUmax, A or B ? Reply with the label of the item you choose.
Result block: B

[A] C[C@@H]1O[C@@H](O[C@H]2[C@H](Oc3cc(O)c4c(c3)O[C@H](c3ccc(O)cc3)CC4=O)O[C@H](CO)[C@@H](O)[C@@H]2O)[C@H](O)[C@H](O)[C@H]1O
[B] C[C@@H]1O[C@@H](O[C@H]2[C@H](Oc3cc(O)c(C(=O)CCc4ccc(O)cc4)c(O)c3)O[C@H](CO)[C@@H](O)[C@@H]2O)[C@H](O)[C@H](O)[C@H]1O [Naringin dihydrochalcone]
Query block: Which has the higher %RUmax, A or B ? Reply with the label of the item you choose.
Result block: B
(B: 8.5%, A: 5.4%)

----------
- ASSAYED_SYSTEM: human SUMO1 (Homo sapiens, UniProt P63165)
- Construct: encoding amino acids 1–97 of mature human SUMO1; host or cells: E. coli BL21 Rosetta (DE3)
- PROTOCOL: SPR secondary screen / dose-dependent binding
- CONDITION_LABEL: one-site hyperbola fit, 31.25-500 μM flavonoid, Fig 2A-C; read-out: Kd (SPR secondary screen)
pKd: −log10 of the molar value.
PROPERTY: pKd

Query block: Look at this molecule and give its reported pKd. O=C(/C=C/c1ccc(O)cc1)c1ccc(O)cc1O
Result block: ~3.71

----------
- ASSAYED_SYSTEM: human SUMO1 (Homo sapiens)
- Construct: encoding amino acids 1–97 of mature human SUMO1; host or cells: E. coli BL21 Rosetta (DE3)
- PROTOCOL: Differential scanning fluorimetry (DSF) thermal shift
- Type: binding
- CONDITION_LABEL: 2 μM SUMO1, 300 μM flavonoid; mean and SEM, n = 5; SUMO1 + DMSO 59.63 ± 0.03
PROPERTY: DSF Tm SUMO1 + Flavonoid (°C)

O=c1cc(-c2ccc(O)c(O)c2)oc2cc(O)cc(O)c12 [Luteolin] : 51.89
C[C@@H]1O[C@@H](O[C@H]2[C@H](Oc3cc(O)c4c(c3)O[C@H](c3ccc(O)cc3)CC4=O)O[C@H](CO)[C@@H](O)[C@@H]2O)[C@H](O)[C@H](O)[C@H]1O [Naringin] : 58.93
O=c1c(O)c(-c2ccc(O)cc2)oc2cc(O)cc(O)c12 [Kaempferol, 3,4′,5,7-tetrahydroxyflavone] : 60.28
O=c1c(O[C@@H]2O[C@H](CO)[C@@H](O)[C@H](O)[C@H]2O)c(-c2ccc(O)c(O)c2)oc2cc(O)cc(O)c12 [Quercetin 3-β-D-glucoside] : 56.95

[1] C[C@@H]1O[C@@H](O[C@H]2[C@H](Oc3cc(O)c(C(=O)CCc4ccc(O)cc4)c(O)c3)O[C@H](CO)[C@@H](O)[C@@H]2O)[C@H](O)[C@H](O)[C@H]1O [Naringin dihydrochalcone]
[2] O=c1c(-c2ccc(O)c(O)c2)coc2cc(O)ccc12 [3’,4’,7-Trihydroxy-isoflavone, 3’,4’,7-Trihydroxyisoflavone]
Query block: Which has the higher DSF Tm SUMO1 + Flavonoid, 1 or 2 ? Reply with the label of the item you choose.
Result block: 1
(1: 59.94 °C, 2: 33.28 °C)

----------
- ASSAYED_SYSTEM: human SUMO1 (Homo sapiens, UniProt P63165)
- Construct: encoding amino acids 1–97 of mature human SUMO1; host or cells: E. coli BL21 Rosetta (DE3)
- PROTOCOL: SPR secondary screen / dose-dependent binding
- Design: key: ✓: dose-dependent saturation kinetics; ×: no indication of saturation kinetics
- CONDITION_LABEL: five concentrations 31.25-500 μM
PROPERTY: SPR Screens 2°

O=c1c(O[C@@H]2O[C@H](CO)[C@@H](O)[C@H](O)[C@H]2O)c(-c2ccc(O)c(O)c2)oc2cc(O)cc(O)c12 [Quercetin 3-β-D-glucoside] : ×
O=c1c(O)c(-c2ccc(O)c(O)c2)oc2cc(O)cc(O)c12 [Quercetin, 3,3',4',5,7-pentahydroxyflavone] : ✓
Cc1c(O)cc2oc(-c3ccc(O)c(O)c3)c(O)c(=O)c2c1O [Pinoquercetin] : ×

----------
The following molecules are shown together with reported %RUmax values.
- ASSAYED_SYSTEM: human SUMO1 (Homo sapiens, UniProt P63165)
- Construct: encoding amino acids 1–97 of mature human SUMO1; host or cells: E. coli BL21 Rosetta (DE3)
- PROTOCOL: Surface plasmon resonance (SPR) primary screen;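 also: recombinant human SUMO1 amine-coupled to a sensor chip, blank activated and quenched reference flow cell, flavonoids injected 2 min then 1 min dissociation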
- Assay type: binding
- CONDITION_LABEL: SPR primary screen, 500 μM flavonoid in DMSO; (Mean RU/RUmax)*100
Express your answer in %, writing the number without its unit.

COc1cc(O)c(Cc2ccccc2O)c(O)c1C(=O)/C=C/c1ccccc1 : -5.3
O=c1c(O)c(-c2ccc(O)c(O)c2)oc2cc(O)cc(O)c12 [Quercetin, 3,3',4',5,7-pentahydroxyflavone] : 14.5

Query block: Look at this molecule and give its reported %RUmax. C[C@@H]1O[C@@H](Oc2c(-c3ccc(O)c(O)c3)oc3cc(O)cc(O)c3c2=O)[C@H](O)[C@H](O)[C@H]1O
Result block: 14.2
